IC50 values for Dual specificity protein phosphatase 1 (Homo sapiens) compiled from several publications are listed below.

Observe how each entry below is paired with its result.
smiles_input: Cn1c(N)c(C(=O)CCl)c(=O)n(C)c1=O
IC50: > 50 µM
//
smiles_input: Cn1c(N)c(C(=O)COC(=O)c2cc(C(F)(F)F)nc3c(C(F)(F)F)cccc23)c(=O)n(C)c1=O
IC50: > 50 µM
//
smiles_input: CCOc1ccc(-c2cc3nc(C4CCN(C(=O)OC(C)(C)C)CC4)c(C(=O)O)cn3n2)cc1
IC50: 30.5 µM
//
smiles_input: Nc1cc(=O)[nH]c(=O)n1Cc1ccccc1
IC50: > 50 µM
//
smiles_input: CCCCC[C@H](O)C=C[C@H]1C=CC(=O)[C@@H]1C/C=C\CCCC(=O)O
IC50: 23.3 µM

# query: IC50 of entry [O-]/[N+](=C\c1ccncc1)c1ccc(Br)cc1
> 50 µM

Please report the recorded IC50 for [O-]/[N+](=C\c1ccc(OC(F)F)cc1)c1ccccc1 .
> 50 µM

Param item = Cc1nc2c(C(=O)NCCC3=CCCCC3)c[nH]n2c(=O)c1Cl ; retrieve measured IC50.
31.1 µM

State the recorded IC50 for this entry: c1ccc(CSc2nnc(-c3ccco3)c(-c3ccco3)n2)cc1
> 50 µM

Please give the measured IC50 for this compound: CN(C)/C=N/c1cc(=O)n(C)c(=O)n1Cc1ccccc1
> 50 µM

---

IC50 for UniProtKB P28562, merged from several publications.
# target_desc: UniProtKB P28562
# Sequence (P28562 whole entry): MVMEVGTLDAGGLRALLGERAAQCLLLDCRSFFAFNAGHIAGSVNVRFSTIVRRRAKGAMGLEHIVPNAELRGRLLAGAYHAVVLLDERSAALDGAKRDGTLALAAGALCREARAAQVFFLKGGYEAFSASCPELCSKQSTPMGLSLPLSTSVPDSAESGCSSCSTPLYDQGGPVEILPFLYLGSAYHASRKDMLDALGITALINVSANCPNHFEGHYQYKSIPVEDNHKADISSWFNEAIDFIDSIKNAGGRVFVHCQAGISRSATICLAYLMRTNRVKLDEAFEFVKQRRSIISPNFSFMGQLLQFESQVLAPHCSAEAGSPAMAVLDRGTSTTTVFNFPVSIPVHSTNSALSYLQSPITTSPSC

Study these solved cases before continuing.
compound: Cc1ccc2c(c1)C1C=CCC1C(C(=O)O)N2 (stereo not given)
IC50: > 50 µM

compound: FC(F)(F)c1cc(Br)c2cccc(C(F)(F)F)c2n1
IC50: > 50 µM

compound: Cc1nn2c(-c3cccc(NC(=O)c4ccco4)c3)nnc2c2ccccc12
IC50: > 50 µM

compound: O=C(NC1(O)C(=O)c2ccccc2C1=O)c1ccccc1
IC50: > 50 µM

compound: N#Cc1c(NC(=O)c2ccc(Br)o2)n(-c2ccccc2)c2nc3ccccc3nc12
IC50: 24.4 µM

compound: O=C(c1n[nH]c(=O)c2ccccc12)N1CCN(C2c3ccccc3-c3ccccc32)CC1
IC50: > 50 µM

# get_value(readout='IC50', item= O=C(O)c1cc(-c2ccco2)nc2ccccc12 )
> 50 µM

I'd like to know its IC50. The compound in question is C=CCn1c(NC(=O)c2ccccc2Cl)c(C#N)c2nc3ccccc3nc21
> 50 µM

Please look up its IC50: Cn1c(=O)oc2cc(S(=O)(=O)NCCC(=O)NC3CCCC3)ccc21
> 50 µM

Name the recorded IC50 for N#Cc1c(N)sc(=S)c2c1CCN(Cc1ccccc1)C2 .
2.38 µM

Quick one: IC50 for CCn1c(SCC(=O)Nc2nc3ccc(OC)cc3s2)nc2c1c(=O)n(C)c(=O)n2C ?
18.2 µM

Fill blank: measured IC50 of the compound O=C1Cc2ccccc2C(=O)N1CCc1ccccc1 is ____.
> 50 µM

Entry Cn1c(N)c(C(=O)COC(=O)c2ccnc3ccccc23)c(=O)n(C)c1=O : reported IC50 = ?
> 50 µM

Could you tell me which IC50 is on file for FC(F)(F)c1ccc(N2CCOCC2)c(Nc2nc3ccccc3n3cnnc23)c1 ?
> 50 µM

Which IC50 is listed for Cn1c(=O)c(C(=O)COC(=O)c2cc(C(F)(F)F)nc3c(C(F)(F)F)cccc23)c(N)n(Cc2ccccc2)c1=O ?
> 50 µM

Record request: IC50 value, item COc1cc(/C=C(/C#N)c2ccc(F)cc2)ccc1OCc1ccc(C(=O)O)o1
> 50 µM

Any idea what IC50 was measured for COc1ccc(-n2c(NC(=O)c3ccco3)c(C#N)c3nc4ccccc4nc32)cc1 ?
34.1 µM

Reported IC50 for Cn1c(N)c(C(=O)COC(=O)c2cc(C(F)(F)F)nc3ccccc23)c(=O)n(Cc2ccccc2)c1=O : what is it?
> 50 µM

GET /values?readout=IC50&item= Cn1c(N)cc(=O)n(Cc2ccccc2)c1=O
> 50 µM

Which value of IC50 has been reported for CCCCn1c(NC(=O)c2ccccc2)c(C#N)c2nc3ccccc3nc21 in the records?
23.5 µM
